molecular target: hGLP1R (Homo sapiens, UniProt P43220); construct: expressed in transfected cells; host or cells: HEK-293 cells carrying a CRE-luciferase reporter gene; experiment: hGLP1R CreLuc reporter gene assay in 0.5% and 100% plasma; type: cell-based; conditions: CreLuc reporter gene assay, 0.5% human plasma; read-out: hGLP1R 0.5% hP
Sequence (P43220 24-463): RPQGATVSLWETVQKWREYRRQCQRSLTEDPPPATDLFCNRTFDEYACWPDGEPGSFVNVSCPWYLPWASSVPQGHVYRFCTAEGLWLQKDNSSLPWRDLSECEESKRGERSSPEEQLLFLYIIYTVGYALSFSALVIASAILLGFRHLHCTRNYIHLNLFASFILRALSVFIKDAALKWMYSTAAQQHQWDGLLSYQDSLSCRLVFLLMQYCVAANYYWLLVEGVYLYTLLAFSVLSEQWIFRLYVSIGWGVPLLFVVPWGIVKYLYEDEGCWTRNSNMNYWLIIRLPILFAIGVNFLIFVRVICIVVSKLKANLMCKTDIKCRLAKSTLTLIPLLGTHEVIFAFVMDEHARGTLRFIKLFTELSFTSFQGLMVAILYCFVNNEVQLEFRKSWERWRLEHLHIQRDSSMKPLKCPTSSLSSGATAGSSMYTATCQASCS
Starred links: 1 amine or outer side, 2 acyl side, 3 side chain; linkers in the order of their positions; H or OH if unused. Non-standard residues stand in square brackets, D forms with d. Groups on a side chain read outwards from the residue. No end group written: not given here. *: point of attachment. C20 diacid = O=C(O)CCCCCCCCCCCCCCCCCCC(=O)*; C18 diacid = O=C(O)CCCCCCCCCCCCCCCCC(=O)*; γGlu = O=C(O)[C@H](CCC(=O)[*:2])N[*:1]; εLys = N[C@@H](CCCCN[*:1])C(=O)[*:2]; Aib = CC(C)(N)C(=O)O
measuredMetric: EC50 (nM)
I only need the number, in nM, no unit after it.

Request: Which measured EC50 value corresponds to H-Y[Aib]EGTFTSDYSI[Aib]LEKQAQ[Aib]AFVEWLIK([Glu-Glu-Glu-Glu-C18 diacid])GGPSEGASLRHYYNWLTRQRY-NH2 [Compound 291] ?
Response: 0.1

Request: Which measured EC50 value corresponds to Y[Aib]EGTFTSDYSI[Aib]LEKQAQ[Aib]AFVQWLIK([γGlu-γGlu-γGlu-γGlu-γGlu-γGlu-C20 diacid])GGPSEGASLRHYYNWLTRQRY-NH2 [Compound 223] ?
Response: 0.18

Request: Which measured EC50 value corresponds to H-Y[Aib]EGTFTSDYSI[Aib]LEKQAQ[Aib]AFVEWLIK([εLys-γGlu-γGlu-γGlu-γGlu-γGlu-γGlu-C20 diacid])GGPSSYESLRHYYNWLTRQRY-NH2 [Compound 50] ?
Response: 0.13

Request: Which measured EC50 value corresponds to H-Y[Aib]EGTFTSDYSI[Aib]LEKQAQ[Aib]EFVQWLIK([γGlu-γGlu-γGlu-γGlu-γGlu-C18 diacid])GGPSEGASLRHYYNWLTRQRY-NH2 [Compound 141] ?
Response: 0.25

Request: Which measured EC50 value corresponds to H-Y[Aib]EGTFTSDYSI[Aib]LEKQAQ[Aib]AFVEWLIK([γGlu-γGlu-γGlu-γGlu-γGlu-C20 diacid])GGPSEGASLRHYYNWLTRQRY-NH2 [Compound 289] ?
Response: 0.14

Request: Which measured EC50 value corresponds to H-Y[Aib]EGTFTSDYSI[Aib]LEKQAQ[Aib]AFVQWLIK([εLys-γGlu-γGlu-γGlu-γGlu-γGlu-C20 diacid])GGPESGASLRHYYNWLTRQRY-NH2 [Compound 61] ?
Response: 0.11

Request: Which measured EC50 value corresponds to H-Y[Aib]EGTFTSDYSI[Aib]LEKQAQ[Aib]EFVQWLIK([εLys-γGlu-γGlu-γGlu-γGlu-γGlu-γGlu-γGlu-C20 diacid])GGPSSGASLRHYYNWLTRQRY-NH2 [Compound 43] ?
Response: 0.41
